B1: Osa-1-4 twister ribozyme (parent)
chain: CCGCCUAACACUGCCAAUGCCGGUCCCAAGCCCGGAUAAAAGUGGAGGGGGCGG

Variants of: B1
Assay Text: self-cleavage, relative activity (ratio to wild type); higher = more cleavage; co-transcriptional

{"Mutation String": "C25G G23C", "self-cleavage": 0.04}
{"Mutation String": "A16G A17U", "self-cleavage": 0.94}
{"Mutation String": "C27A U18A", "self-cleavage": 0.27}
{"Mutation String": "A17U G35A", "self-cleavage": 0.9}
{"Mutation String": "A46G C33U", "self-cleavage": 0.06}
{"Mutation String": "C20G G35U", "self-cleavage": 0.27}
{"Mutation String": "C26A C31A", "self-cleavage": 0.02}
{"Mutation String": "A46U C15U", "self-cleavage": 0.06}
{"Mutation String": "C52A G51A", "self-cleavage": 0.9}
{"Mutation String": "C15U U12A", "self-cleavage": 0.11}
{"Mutation String": "A40U A8U", "self-cleavage": 0.07}
{"Mutation String": "A46C G49C", "self-cleavage": 0.03}
{"Mutation String": "A16G G19A", "self-cleavage": 0.98}
{"Mutation String": "A28C U43C", "self-cleavage": 0.33}
{"Mutation String": "C33A U12G", "self-cleavage": 0.06}
{"Mutation String": "C9A G47C", "self-cleavage": 0.03}
{"Mutation String": "C32U G53U", "self-cleavage": 0.09}
{"Mutation String": "A28C A46C", "self-cleavage": 0.06}
{"Mutation String": "C31G C33U", "self-cleavage": 0.06}
{"Mutation String": "A16U G53U", "self-cleavage": 0.4}
{"Mutation String": "G30A G42U", "self-cleavage": 0.02}
{"Mutation String": "A46C C25U", "self-cleavage": 0.05}
